- MEASUREMENT_TARGET: hMeCP2 MBD (Homo sapiens, UniProt P51608 90-181)
- Sequence (P51608 90-181): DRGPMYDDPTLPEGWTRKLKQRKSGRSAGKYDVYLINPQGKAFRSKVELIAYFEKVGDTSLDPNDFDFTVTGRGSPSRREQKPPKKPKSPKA
- TEST_NAME: EMSA; 20 mM HEPES, 30 mM KCl, 1 mM EDTA, 10 mM (NH4)2SO4, pH 7.3, 1 mM DTT, 0.2% Tween 20, 50 ng/uL poly(dA)-poly(dT) trap, 2 nM duplex, protein in dialysis buffer with BSA; 20 min room temperature; gel at 4 C
- CONDITION_INFO: protein: recombinant; label: 5' 6-FAM on strand 1; blunt
MEASUREMENT_LABEL: Kd (nM)
Number in nM, nothing else.

{"BINDER": "p03 hmC/C duplex (dsDNA, 5-hydroxymethylcytosine at C12 of strand 1; strand 2 unmodified (o3115/o2904)) DNA 1: AAAAAAAAAAACGAAAAAAAAAAA DNA 2: TTTTTTTTTTTCGTTTTTTTTTTT", "NUMERIC_READOUT": 1080}
{"BINDER": "p06 mC/mC duplex (dsDNA, 5-methylcytosine at C12 of strand 1 and C12 of strand 2 (o2967/o2909)) DNA 1: AAAAAAAAAAACGAAAAAAAAAAA DNA 2: TTTTTTTTTTTCGTTTTTTTTTTT", "NUMERIC_READOUT": 26.6}
{"BINDER": "p08 fC/mC duplex (dsDNA, 5-formylcytosine at C12 of strand 1; 5-methylcytosine at C12 of strand 2 (o3116/o2909)) DNA 1: AAAAAAAAAAACGAAAAAAAAAAA DNA 2: TTTTTTTTTTTCGTTTTTTTTTTT", "NUMERIC_READOUT": 197}
{"BINDER": "p11 fC/hmC duplex (dsDNA, 5-formylcytosine at C12 of strand 1; 5-hydroxymethylcytosine at C12 of strand 2 (o3116/o3112)) DNA 1: AAAAAAAAAAACGAAAAAAAAAAA DNA 2: TTTTTTTTTTTCGTTTTTTTTTTT", "NUMERIC_READOUT": 541}

Consider now this further binder.
Problem: Can you share its Kd? I mean this binder: p07 hmC/mC duplex (dsDNA, 5-hydroxymethylcytosine at C12 of strand 1; 5-methylcytosine at C12 of strand 2 (o3115/o2909)) DNA 1: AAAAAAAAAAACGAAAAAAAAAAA DNA 2: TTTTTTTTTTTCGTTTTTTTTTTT
Result: 224

# credit: paper PMC7055227
